System: Dual specificity mitogen-activated protein kinase kinase 2 (Homo sapiens) | Read-out: ΔTm
Sequence (P36507 whole entry): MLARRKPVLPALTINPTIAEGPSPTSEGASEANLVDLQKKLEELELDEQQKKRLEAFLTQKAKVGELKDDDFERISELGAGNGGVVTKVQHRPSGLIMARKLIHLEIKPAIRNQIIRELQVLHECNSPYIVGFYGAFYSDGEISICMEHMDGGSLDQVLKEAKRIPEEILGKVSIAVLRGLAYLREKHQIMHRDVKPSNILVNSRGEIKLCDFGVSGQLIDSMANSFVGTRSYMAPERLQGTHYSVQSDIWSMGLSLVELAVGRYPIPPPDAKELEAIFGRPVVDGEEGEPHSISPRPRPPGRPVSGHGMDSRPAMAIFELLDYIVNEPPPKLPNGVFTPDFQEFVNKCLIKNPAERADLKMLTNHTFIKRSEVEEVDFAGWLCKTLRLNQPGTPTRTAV
Please answer using a numeric value trailed by its unit.

Use these answered entries as a reference point.
O=c1cc(N2CCOCC2)oc2c1ccc1ccccc12 :: 0.1 °C
Cc1nc(Nc2ncc(C(=O)Nc3c(C)cccc3Cl)s2)cc(N2CCN(CCO)CC2)n1 :: -0.2 °C
O=c1c(-c2ccc(F)cc2)c(-c2ccncc2)[nH]n1-c1ccc(Cl)cc1 :: 1.9 °C
COc1cc2c(cc1OC)-c1n[nH]c(Nc3cccc(F)c3)c1C2 :: 0.7 °C
O=C1Cc2c([nH]c3ccc([N+](=O)[O-])cc23)-c2ccccc2N1 :: 0.3 °C

Test system Dual specificity mitogen-activated protein kinase kinase 2 (Homo sapiens); read-out ΔTm; what value for CCOc1ccc(/C=C2/SC(=O)N(CCN)C2=O)cc1 [HIAZOLIDINEDIONE1] ? 0.4 °C

Test system Dual specificity mitogen-activated protein kinase kinase 2 (Homo sapiens); read-out ΔTm; what value for N#C/C(=C(/N)Sc1ccc(N)cc1)c1ccccc1C(F)(F)F ? 0.8 °C

Test system Dual specificity mitogen-activated protein kinase kinase 2 (Homo sapiens); read-out ΔTm; what value for CC(C)N(CCO)c1nc(Nc2cccc(Cl)c2)c2ncn(C(C)C)c2n1 ? 0.6 °C

Test system Dual specificity mitogen-activated protein kinase kinase 2 (Homo sapiens); read-out ΔTm; what value for CCN(CC)CCNC(=O)c1c(C)[nH]c(/C=C2\C(=O)Nc3ccc(Cl)cc32)c1C [SU-11652] ? 6.3 °C

Test system Dual specificity mitogen-activated protein kinase kinase 2 (Homo sapiens); read-out ΔTm; what value for NCCNc1ncc(C(N)=O)c(Nc2cccc(C(F)(F)F)c2)n1 ? 5.1 °C

----------
target: Cyclin-dependent kinase 1 (Homo sapiens); assay: Inhibition of Cdk1
Sequence (P06493 whole entry): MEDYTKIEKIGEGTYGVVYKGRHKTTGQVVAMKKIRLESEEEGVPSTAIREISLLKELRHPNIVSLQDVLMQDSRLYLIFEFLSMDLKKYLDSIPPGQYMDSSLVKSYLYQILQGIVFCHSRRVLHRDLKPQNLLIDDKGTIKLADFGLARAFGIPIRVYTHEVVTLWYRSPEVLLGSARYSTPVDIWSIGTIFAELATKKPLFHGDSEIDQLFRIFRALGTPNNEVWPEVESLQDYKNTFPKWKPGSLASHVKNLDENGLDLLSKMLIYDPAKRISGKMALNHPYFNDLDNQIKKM
property name: IC50 (nM)
Provide the reading as a plain figure in nM.

O=Nc1c(-c2c(O)[nH]c3ccc(I)cc23)[nH]c2ccccc12 :: 5

In the following, a different compound is considered.
Quick one: IC50 of O=C1Nc2ccc(S(=O)(=O)O)cc2/C1=C1/Nc2ccccc2/C1=N\O ? 5

----------
biological target: Serine/threonine-protein kinase 26 (Homo sapiens) (UniProt Q9P289)
Sequence (Q9P289 2-416 limits assumed): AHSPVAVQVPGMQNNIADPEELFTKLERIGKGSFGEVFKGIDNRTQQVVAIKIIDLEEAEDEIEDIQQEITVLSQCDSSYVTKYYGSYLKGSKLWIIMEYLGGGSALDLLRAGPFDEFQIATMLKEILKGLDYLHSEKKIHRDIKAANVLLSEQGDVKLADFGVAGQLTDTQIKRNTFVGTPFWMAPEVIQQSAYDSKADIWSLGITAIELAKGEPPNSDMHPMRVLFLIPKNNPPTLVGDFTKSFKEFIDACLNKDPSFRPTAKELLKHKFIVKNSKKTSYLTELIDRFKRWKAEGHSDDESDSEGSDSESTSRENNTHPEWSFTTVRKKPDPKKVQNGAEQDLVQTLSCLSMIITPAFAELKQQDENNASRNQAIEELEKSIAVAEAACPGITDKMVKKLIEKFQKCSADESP
Each record is given true if its reported ΔTm is strictly below 1 °C. Records at or above 1 °C are given false.

Worked cases, answers included:
CCCCc1c(-c2ccc(O)cc2)[nH]c2nccnc12 [ALOISINE A] :: false
O=C1Nc2ccccc2/C1=C\c1ccc[nH]1 :: false
Cn1cnc2c(NCc3ccccc3)nc(NCCO)nc21 [OLOMOUCINE] :: true
CC(=O)O/N=C1/C(=C2/C(=O)Nc3cc(Br)ccc32)Nc2ccccc21 [6-BROMOINDIRUBIN-3'-ACETOXIME] :: true
Cn1cc(C2=C(c3cn(CCCN)c4ccccc34)C(=O)NC2=O)c2ccccc21 :: false
CC(C)(C)n1nc(-c2cccc3ccccc23)c2c(N)ncnc21 :: true

A record lists CCOc1ccc(/C=C2/SC(=O)N(CCN)C2=O)cc1 [HIAZOLIDINEDIONE1] . Is its ΔTm below 1 °C? true

----------
biological target: Dual specificity protein kinase CLK4 (Mus musculus)
Sequence (O35493 whole entry): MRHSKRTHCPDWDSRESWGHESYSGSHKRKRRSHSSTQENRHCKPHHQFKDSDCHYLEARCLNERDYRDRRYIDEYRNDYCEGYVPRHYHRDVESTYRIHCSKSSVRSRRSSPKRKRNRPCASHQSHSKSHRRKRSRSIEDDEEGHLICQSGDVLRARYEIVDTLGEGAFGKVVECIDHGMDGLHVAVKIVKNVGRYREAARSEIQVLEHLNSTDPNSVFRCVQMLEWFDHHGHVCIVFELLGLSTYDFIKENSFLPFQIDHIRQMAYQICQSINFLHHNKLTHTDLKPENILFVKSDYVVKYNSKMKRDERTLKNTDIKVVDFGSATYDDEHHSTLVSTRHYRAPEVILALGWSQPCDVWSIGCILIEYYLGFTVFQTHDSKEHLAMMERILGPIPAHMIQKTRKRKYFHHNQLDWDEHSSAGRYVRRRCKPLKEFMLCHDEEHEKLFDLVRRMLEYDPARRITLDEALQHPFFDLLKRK
property name: pIC50
The scale used: pIC50 is minus the common logarithm of the concentration in molar units.

Quick one: pIC50 of CCN1/C(=C/C(C)=O)Sc2ccc(OC)cc21 ? 7.82

----------
System: Serine/threonine-protein kinase 25 (Homo sapiens) (UniProt O00506) | Read-out: ΔTm
Sequence (O00506 whole entry, looked up): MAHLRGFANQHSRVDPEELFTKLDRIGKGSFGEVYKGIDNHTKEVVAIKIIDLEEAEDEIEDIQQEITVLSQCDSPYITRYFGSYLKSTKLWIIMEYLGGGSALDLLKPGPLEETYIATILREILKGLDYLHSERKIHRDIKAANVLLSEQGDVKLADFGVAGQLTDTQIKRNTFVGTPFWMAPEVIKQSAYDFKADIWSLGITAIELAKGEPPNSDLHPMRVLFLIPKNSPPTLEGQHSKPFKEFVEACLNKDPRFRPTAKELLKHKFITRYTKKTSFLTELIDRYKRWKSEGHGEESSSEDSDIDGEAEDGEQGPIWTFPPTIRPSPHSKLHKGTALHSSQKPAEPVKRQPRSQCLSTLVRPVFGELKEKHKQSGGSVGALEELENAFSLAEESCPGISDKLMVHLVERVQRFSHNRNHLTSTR
Provide the reading as a plain figure in °C.

Use these answered entries as a reference point.
O=C1NC(=O)C(c2c[nH]c3ccccc23)=C1c1c[nH]c2ccccc12 :: 2
CN(C)CCCn1cc(C2=C(c3c[nH]c4ccccc34)C(=O)NC2=O)c2ccccc21 :: 2.7

Test system Serine/threonine-protein kinase 25 (Homo sapiens) (UniProt O00506); read-out ΔTm; what value for C[S+]([O-])c1ccc(-c2nc(-c3ccc(F)cc3)c(-c3ccncc3)[nH]2)cc1 (stereo unspecified) ? 0.9

Test system Serine/threonine-protein kinase 25 (Homo sapiens) (UniProt O00506); read-out ΔTm; what value for NCCNS(=O)(=O)c1cccc2c(Cl)cccc12 ? -0.2

Test system Serine/threonine-protein kinase 25 (Homo sapiens) (UniProt O00506); read-out ΔTm; what value for CCN(CC)CCNC(=O)c1c(C)[nH]c(/C=C2\C(=O)Nc3ccc(Cl)cc32)c1C ? 7.4

Test system Serine/threonine-protein kinase 25 (Homo sapiens) (UniProt O00506); read-out ΔTm; what value for CC(C)n1cnc2/c(=N/c3cccc(Cl)c3)nc(NCCO)[nH]c21 ? 2.9

Test system Serine/threonine-protein kinase 25 (Homo sapiens) (UniProt O00506); read-out ΔTm; what value for NC1=N/C(=C2/CCNC(=O)c3[nH]ccc32)C(=O)N1 ? 1.7

Test system Serine/threonine-protein kinase 25 (Homo sapiens) (UniProt O00506); read-out ΔTm; what value for COc1cc2ncnc(Nc3cccc(Br)c3)c2cc1OC ? 1.4

Test system Serine/threonine-protein kinase 25 (Homo sapiens) (UniProt O00506); read-out ΔTm; what value for O=c1cc(N2CCOCC2)oc2c1ccc1ccccc12 ? 0.6

Test system Serine/threonine-protein kinase 25 (Homo sapiens) (UniProt O00506); read-out ΔTm; what value for CN(C)S(=O)(=O)c1ccc2c(c1)/C(=C/c1cc3c([nH]1)CCCC3)C(=O)N2 ? 5.3

Test system Serine/threonine-protein kinase 25 (Homo sapiens) (UniProt O00506); read-out ΔTm; what value for CC(C)(C)n1nc(-c2ccc(Cl)cc2)c2c(N)ncnc21 ? 1.2

Test system Serine/threonine-protein kinase 25 (Homo sapiens) (UniProt O00506); read-out ΔTm; what value for CC[C@H](CO)Nc1nc(NCc2ccccc2)c2ncn(C(C)C)c2n1 ? 0.3

Test system Serine/threonine-protein kinase 25 (Homo sapiens) (UniProt O00506); read-out ΔTm; what value for O=C1NC(=O)c2c1c1c3ccccc3n3c1c1c2c2ccccc2n1C1CCC3O1 ? 2.1

Test system Serine/threonine-protein kinase 25 (Homo sapiens) (UniProt O00506); read-out ΔTm; what value for CCOc1cc2ncnc(Nc3cccc(Br)c3)c2cc1OCC ? 1.5

Test system Serine/threonine-protein kinase 25 (Homo sapiens) (UniProt O00506); read-out ΔTm; what value for N#CC(C#N)=Cc1ccc(O)c(O)c1 ? -0.2

Test system Serine/threonine-protein kinase 25 (Homo sapiens) (UniProt O00506); read-out ΔTm; what value for C[C@@H]1C[C@H]2O[C@@H]2/C=C\C=C\C(=O)Cc2c(Cl)c(O)cc(O)c2C(=O)O1 ? -0.6

----------
System: Serine/threonine-protein kinase Nek6 (Homo sapiens) | Read-out: ΔTm
Provide the reading as a plain figure in °C.

CN1CCc2[nH]c(=S)c(C#N)c(-c3cccs3)c2C1 :: 0
C[C@@H](N)[C@H]1CC[C@H](C(=O)Nc2ccncc2)CC1 :: 0

Quick one: ΔTm of O=C1c2ccccc2-[n+]2ccc3c([nH]c4ccccc43)c21 [FASCAPLYSIN CHLORIDE] ? -0.1

Quick one: ΔTm of CN[C@@H]1CC2O[C@@](C)([C@@H]1OC)n1c3ccccc3c3c4c(c5c6ccccc6n2c5c31)C(=O)NC4 ? -0.3

Quick one: ΔTm of COc1nccc(-c2c(-c3ccc(F)cc3)ncn2[C@H]2CC[C@H](O)CC2)n1 ? -0.3

----------
molecular target: Ribosomal protein S6 kinase alpha-3 (Homo sapiens) (UniProt P51812)
Sequence (P51812 whole entry): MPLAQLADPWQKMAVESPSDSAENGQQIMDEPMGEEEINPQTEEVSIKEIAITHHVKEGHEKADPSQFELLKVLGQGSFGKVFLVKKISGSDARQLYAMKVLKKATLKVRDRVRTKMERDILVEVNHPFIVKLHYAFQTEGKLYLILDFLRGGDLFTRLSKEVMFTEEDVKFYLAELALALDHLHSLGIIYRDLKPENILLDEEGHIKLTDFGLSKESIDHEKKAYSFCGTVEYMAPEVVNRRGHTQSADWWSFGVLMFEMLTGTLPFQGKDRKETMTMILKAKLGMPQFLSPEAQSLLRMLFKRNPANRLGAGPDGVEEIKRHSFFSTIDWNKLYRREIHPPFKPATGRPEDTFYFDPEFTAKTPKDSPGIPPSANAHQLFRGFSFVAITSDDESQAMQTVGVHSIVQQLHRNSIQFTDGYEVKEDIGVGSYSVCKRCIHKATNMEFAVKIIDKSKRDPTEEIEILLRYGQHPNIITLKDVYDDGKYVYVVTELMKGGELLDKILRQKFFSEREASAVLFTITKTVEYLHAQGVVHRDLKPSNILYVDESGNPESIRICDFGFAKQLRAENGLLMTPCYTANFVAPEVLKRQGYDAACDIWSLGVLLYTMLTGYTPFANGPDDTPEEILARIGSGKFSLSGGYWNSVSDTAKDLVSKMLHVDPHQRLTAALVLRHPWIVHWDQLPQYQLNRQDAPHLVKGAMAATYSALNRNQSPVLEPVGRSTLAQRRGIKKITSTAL
Each record is given label 1 if its reported ΔTm is strictly below 0.2 °C. Records at or above 0.2 °C are given label 0.

O=C1Nc2ccc(S(=O)(=O)O)cc2/C1=C1/Nc2ccccc2/C1=N\O :: label 0
O=c1ccc2ccc(O)c(O)c2o1 [DAPHNETIN] :: label 1
CCN(CC)CCNC(=O)c1c(C)[nH]c(/C=C2\C(=O)Nc3ccc(Cl)cc32)c1C [SU-11652] :: label 0
O=C(O)c1cc(NCc2cc(O)ccc2O)ccc1O :: label 0
C[S+]([O-])c1ccc(-c2nc(-c3ccc(F)cc3)c(-c3ccncc3)[nH]2)cc1 (stereo not given) [SB-203580] :: label 1

A record lists CCCCc1c(-c2ccc(O)cc2)[nH]c2nccnc12 [ALOISINE A] . Is its ΔTm below 0.2 °C? label 0

A record lists NC(=O)c1ccc(-c2nc(-c3ccc4c(c3)OCCO4)c(-c3ccccn3)[nH]2)cc1 . Is its ΔTm below 0.2 °C? label 1

A record lists Cc1cc(C=C2C(=O)C=CC2=O)cc(C)c1O . Is its ΔTm below 0.2 °C? label 1

----------
biological target: Dual specificity protein kinase CLK2 (Homo sapiens) (UniProt P49760)
Sequence (P49760 whole entry, looked up): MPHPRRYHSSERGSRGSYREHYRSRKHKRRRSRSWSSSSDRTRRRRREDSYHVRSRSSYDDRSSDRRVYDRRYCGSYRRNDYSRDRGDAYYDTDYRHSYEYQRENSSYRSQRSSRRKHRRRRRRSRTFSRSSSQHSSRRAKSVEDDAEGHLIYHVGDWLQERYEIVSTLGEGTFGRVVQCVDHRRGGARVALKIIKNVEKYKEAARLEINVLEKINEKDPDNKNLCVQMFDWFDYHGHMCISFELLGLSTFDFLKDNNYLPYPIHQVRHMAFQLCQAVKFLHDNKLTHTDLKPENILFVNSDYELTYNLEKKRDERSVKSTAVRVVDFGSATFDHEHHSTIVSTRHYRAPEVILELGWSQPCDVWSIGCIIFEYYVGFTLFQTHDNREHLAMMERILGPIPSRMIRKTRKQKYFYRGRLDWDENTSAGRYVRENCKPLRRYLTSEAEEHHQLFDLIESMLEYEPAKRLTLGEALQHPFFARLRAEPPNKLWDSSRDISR
Please note: y applies when ΔTm is 2 °C or greater, and n applies otherwise.

Worked cases, answers included:
COc1cc2ncnc(Nc3cccc(O)c3)c2cc1OC :: n
Cc1c2ccncc2c(C)c2c1[nH]c1ccccc12 [ELLIPTECINE] :: y
O=C1Nc2ccc(I)cc2/C1=C1/Nc2ccccc2/C1=N\O :: y
CCCNC(=O)Nc1ccc(Oc2ncnc3cc(OC)c(OC)cc23)cc1Cl [KRN-633] :: n
CCCCc1c(-c2ccc(O)cc2)[nH]c2nccnc12 [ALOISINE A] :: n
O=C1c2ccccc2-c2n[nH]c3cccc1c23 :: y
CC(C)n1cnc2c(NCc3ccccc3)nc(NCCCO)nc21 :: y
N=C(N)NCCNS(=O)(=O)c1cccc2cnccc12 :: n

Decide: is the reported value of ΔTm for COc1cc(OC)c(/C=C2\C(=O)Nc3ccccc32)c(OC)c1 equal to or greater than 2 °C? n

Decide: is the reported value of ΔTm for CN1CCc2[nH]c(=S)c(C#N)c(-c3cccs3)c2C1 equal to or greater than 2 °C? y

Decide: is the reported value of ΔTm for O=S(=O)(NCCNC/C=C/c1ccc(Br)cc1)c1cccc2cnccc12 equal to or greater than 2 °C? n

Decide: is the reported value of ΔTm for O=c1ccc2ccc(O)c(O)c2o1 [DAPHNETIN] equal to or greater than 2 °C? n

Decide: is the reported value of ΔTm for Nc1ncnc2c1c(I)cn2[C@@H]1O[C@H](CO)[C@@H](O)[C@H]1O equal to or greater than 2 °C? y

Decide: is the reported value of ΔTm for Cn1cc(C2=C(c3cn(CCCN)c4ccccc34)C(=O)NC2=O)c2ccccc21 equal to or greater than 2 °C? y
